assay system: C5aR (Homo sapiens (Human))
Sequence (P21730 whole entry): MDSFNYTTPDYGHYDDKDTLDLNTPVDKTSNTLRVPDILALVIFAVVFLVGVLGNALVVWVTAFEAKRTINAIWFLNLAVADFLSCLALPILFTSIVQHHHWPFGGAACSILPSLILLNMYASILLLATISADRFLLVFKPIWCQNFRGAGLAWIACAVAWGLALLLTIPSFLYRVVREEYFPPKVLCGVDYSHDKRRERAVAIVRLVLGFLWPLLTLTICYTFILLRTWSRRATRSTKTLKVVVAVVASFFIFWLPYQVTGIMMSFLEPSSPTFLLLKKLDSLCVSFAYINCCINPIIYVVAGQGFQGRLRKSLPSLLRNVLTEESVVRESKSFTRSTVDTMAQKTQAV
procedure details: Calcium mobilization (U937/C5aR or HEK293/C5aR cells, FLIPR)
Format: cell-based
measurement parameters: agonist human C5a at EC80, FLIPR
pIC50: −log10 of the molar value.
I'd be grateful if you could share measured pIC50 for these entries.

Provide one value: measured pIC50 of Cc1ccc(NC(=O)[C@H]2CC[C@@H]3Cc4ccccc4C(=O)N3C2c2ccc(NC3CCCC3)cc2)cc1C(F)(F)F (relative stereo)
5.00 to 5.70

Provide one value: measured pIC50 of Cc1cccc(F)c1C(=O)N1C2COC[C@@H]2C[C@H](C(=O)Nc2ccc(N(C)C)cc2)[C@@H]1c1ccc(NC2CCOCC2)cc1 (mixture of isomers)
5.00 to 5.70

Provide one value: measured pIC50 of Cc1cccc(F)c1C(=O)N1[C@@H]2COC[C@@H]2C[C@H](C(=O)Nc2ccc(N(C)C)cc2)[C@@H]1c1ccc(NC2CCCC2)cc1
5.00 to 5.70

Provide one value: measured pIC50 of Cc1cc(C)cc(S(=O)(=O)N2CCC[C@H](C(=O)Nc3ccc(C)c(C(F)(F)F)c3)[C@@H]2c2ccc(NC3CCCC3)cc2)c1
< 5.00

Provide one value: measured pIC50 of Cc1ccc(NC(=O)[C@H]2CCCN(c3ncnc4cnccc34)[C@H]2c2ccc(NC3CCCC3)cc2)cc1C(F)(F)F
5.00 to 5.70

Provide one value: measured pIC50 of Cc1cccc(F)c1C(=O)N1[C@@H]2CCC[C@@H]2C[C@H](C(=O)Nc2ccc3[nH]ncc3c2)[C@@H]1c1ccc(NC2CCOCC2)cc1
5.00 to 5.70

Provide one value: measured pIC50 of Cc1ccc(NC(=O)[C@H]2C[C@H]3CCC[C@H]3N(C(=O)c3c(C)cccc3F)[C@H]2c2ccc(NC3CCCC3)cc2)cc1C#N (racemic)
6.30 to 7.30

Provide one value: measured pIC50 of Cc1ccc(NC(=O)[C@H]2CCCN(S(=O)(=O)c3cccnc3Cl)[C@H]2c2ccc(NC3CCCC3)cc2)cc1C(F)(F)F
5.00 to 5.70

Provide one value: measured pIC50 of Cc1cccc(F)c1C(=O)N1C2CCC[C@@H]2C[C@H](C(=O)Nc2ccc3ncn(C)c3c2)[C@@H]1c1ccc(NC2CCCC2)cc1 (mixture of isomers)
< 5.00

Provide one value: measured pIC50 of Cc1ccc(NC(=O)[C@@H]2CCCN(c3ccncn3)[C@H]2c2ccc(NC3CCCC3)cc2)cc1C(F)(F)F
5.00 to 5.70

Provide one value: measured pIC50 of Cc1ccc(NC[C@H]2CCCN(C(=O)c3c(C)cccc3F)[C@H]2c2ccc(NC3CCCC3)cc2)cc1C(F)(F)F
5.00 to 5.70

Provide one value: measured pIC50 of Cc1cccc(F)c1C(=O)N1[C@@H]2CCC[C@@H]2C[C@H](C(=O)Nc2ccc(N(C)C)cc2)[C@@H]1c1ccc(NC2CCCC2)cc1
5.70 to 6.30

Provide one value: measured pIC50 of Cc1cccc(F)c1C(=O)N1C(c2ccc(NC3CCCC3)cc2)C(C(=O)Nc2cnc3cnn(C)c3c2)C[C@@H]2CCC[C@@H]21 (relative stereo)
5.70 to 6.30

Provide one value: measured pIC50 of Cc1ccc(NC(=O)C2C[C@@H]3COC[C@@H]3N(C(=O)c3c(C)cccc3F)C2c2ccc(NC3CCCC3)cc2)cc1C(F)(F)F (relative stereo)
6.30 to 7.30

Provide one value: measured pIC50 of Cc1ccc(NC(=O)[C@H]2CCCN(S(=O)(=O)c3cccnc3)[C@H]2c2ccc(NC3CCCC3)cc2)cc1C(F)(F)F
< 5.00

Provide one value: measured pIC50 of Cc1ccc(NC(=O)[C@H]2CCCN(S(=O)(=O)c3c(Cl)cccc3Cl)[C@H]2c2ccc(NC3CCCC3)cc2)cc1C(F)(F)F
< 5.00

Provide one value: measured pIC50 of Cc1cccc(F)c1C(=O)N1CCC[C@H](c2nc3cc(C(C)(C)C)ccc3o2)[C@@H]1c1ccc(NC2CCCC2)cc1
5.00 to 5.70

Provide one value: measured pIC50 of Cc1ccc(NC(=O)[C@H]2CCCN(c3nccc4cccnc34)[C@H]2c2ccc(NC3CCCC3)cc2)cc1C(F)(F)F
5.00 to 5.70

Provide one value: measured pIC50 of Cc1ccc(NC(=O)[C@H]2C[C@H]3CCC[C@H]3N(C(=O)c3cnn(C)c3)C2c2ccc(NC3CCCC3)cc2)cc1C(F)(F)F (relative stereo)
< 5.00

Provide one value: measured pIC50 of Cc1ccc(NC(=O)[C@H]2CCCN(S(=O)(=O)Cc3ccccc3)[C@H]2c2ccc(NC3CCCC3)cc2)cc1C(F)(F)F
5.00 to 5.70

Provide one value: measured pIC50 of Cc1ccc(NC(=O)C2C[C@@H]3CCC[C@@H]3N(C(=O)c3c(C)cccc3F)C2c2ccc(NC3CCOCC3)cc2)cc1C(F)(F)F (relative stereo)
> 7.30

Provide one value: measured pIC50 of Cc1ccc(NC(=O)[C@H]2CCCN(S(=O)(=O)c3ccccc3[N+](=O)[O-])[C@H]2c2ccc(NC3CCCC3)cc2)cc1C(F)(F)F
5.00 to 5.70

Provide one value: measured pIC50 of Cc1ccc(NC(=O)[C@H]2CCCN(S(=O)(=O)c3ccccc3C#N)[C@H]2c2ccc(NC3CCCC3)cc2)cc1C(F)(F)F
5.00 to 5.70

Provide one value: measured pIC50 of Cc1ccc(NC(=O)[C@H]2CCCN(S(=O)(=O)c3ccccc3C(F)(F)F)[C@H]2c2ccc(NC3CCCC3)cc2)cc1C(F)(F)F
5.00 to 5.70
